target: Serine/threonine-protein kinase STK11 (Homo sapiens); assay: Inhibition of LKB1 at 1 uM
Reported inhibition by item:

The examples below pair each entry with its known result.
CN1CCN(c2ccc(-c3cnc4c(c3)N(Cc3c(F)ccc(F)c3Cl)CCN4)cn2)CC1	< 50%
O=C(c1ccc(-c2cnc3c(c2)N(Cc2cc(Cl)ccc2C(F)(F)F)CCN3)cc1)N1CCCCC1	< 50%
CN1CCN(c2ccc(-c3cnc4c(c3)N(Cc3cc(Cl)ccc3C(F)(F)F)CCN4)cn2)CC1	< 50%
FC(F)(F)c1ccc(Cl)cc1CN1CCNc2ncc(-c3ccnc(N4CCNCC4)c3)cc21	< 50%

Could you now look at the following compound, please?
So, O=C(c1ccc(-c2cnc3c(c2)N(Cc2cc(Cl)ccc2C(F)(F)F)CCN3)cc1)N1CCC(N2CCCC2)CC1 ? Its inhibition was < 50%
